Examples of compounds with documented inhibition follow.
# target-or-system: UniProt:P06276
# Sequence (P06276 whole entry): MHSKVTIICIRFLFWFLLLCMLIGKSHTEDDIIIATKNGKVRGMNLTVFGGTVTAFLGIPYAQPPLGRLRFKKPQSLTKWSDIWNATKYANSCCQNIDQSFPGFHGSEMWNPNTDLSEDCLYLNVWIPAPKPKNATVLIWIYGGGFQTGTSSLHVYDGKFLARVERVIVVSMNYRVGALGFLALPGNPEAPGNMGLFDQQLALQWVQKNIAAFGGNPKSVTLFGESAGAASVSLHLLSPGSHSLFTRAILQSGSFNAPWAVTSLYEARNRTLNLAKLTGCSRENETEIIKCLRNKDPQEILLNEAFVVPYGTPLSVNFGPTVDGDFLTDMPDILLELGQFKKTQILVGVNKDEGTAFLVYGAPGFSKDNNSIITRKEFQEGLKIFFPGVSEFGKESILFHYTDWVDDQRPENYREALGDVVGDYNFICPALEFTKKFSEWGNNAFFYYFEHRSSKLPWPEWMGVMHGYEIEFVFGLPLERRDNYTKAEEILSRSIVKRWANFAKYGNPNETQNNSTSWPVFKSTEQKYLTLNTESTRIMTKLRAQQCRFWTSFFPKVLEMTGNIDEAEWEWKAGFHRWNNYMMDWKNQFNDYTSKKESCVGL
# protocol-details: Inhibition of human serum recombinant BChE using butyrylthiocholine iodide as a substrate at 10 uM incubated for 20 mins by DTNB reagent based Ellman's method
# Format: cell-free
A number alone suffices; assume %.

{"structure-string": "CCN(CC)Cc1ccc(/C=C2\\Cc3ccccc3C2=O)cc1", "units-symbol": "%", "inhibition": 17.8}
{"structure-string": "CCN(CC)Cc1ccc(/C=C2\\Cc3ccc(OC)cc3C2=O)cc1", "units-symbol": "%", "inhibition": 14.3}
{"structure-string": "CCN(CC)Cc1ccc(C=C2Cc3ccc(OC)cc3C2=O)cc1", "units-symbol": "%", "inhibition": 8.3}

Please examine the following record next.
input: Fill in the blank: the reported inhibition of `CCN(CC)Cc1ccc(C=C2Cc3ccccc3C2=O)cc1` is ____.
output: 16.2

###

Examples of compounds with documented inhibition at 10 µM follow.
# target-or-system: MAO-A (amine oxidase [flavin-containing] A) (Homo sapiens)
# protocol-details: Inhibition of human recombinant MAO-A assessed as reduction in 4-hydroxyquinoline level using kynuramine as a substrate at 10 uM preincubated for 5 mins followed by substrate addition by spectrofluorimetric analysis
# assay-context: probe kynuramine
Please format your answer as a value with the unit trailing.

# count of solved cases: 4
{"structure-string": "CCN(CC)Cc1ccc(/C=C2\\Cc3ccccc3C2=O)cc1", "experimental-result": "42.7%"}
{"structure-string": "CCN(CC)Cc1ccc(/C=C2\\Cc3cc(OC)c(OC)cc3C2=O)cc1", "experimental-result": "49.6%"}
{"structure-string": "CCN(CC)Cc1ccc(C=C2Cc3cc(OC)ccc3C2=O)cc1", "experimental-result": "45.1%"}
{"structure-string": "CCN(CC)Cc1ccc(/C=C2/Cc3cc(OC)ccc3C2=O)cc1", "experimental-result": "28.2%"}

input: Give MAO-A (amine oxidase [flavin-containing] A) (Homo sapiens) inhibition at 10 µM for `CCN(CC)Cc1ccc(/C=C2\Cc3cc(OC)ccc3C2=O)cc1`
output: 32.8%

###

# target-or-system: UniProt P21397
# Sequence (P21397 whole entry): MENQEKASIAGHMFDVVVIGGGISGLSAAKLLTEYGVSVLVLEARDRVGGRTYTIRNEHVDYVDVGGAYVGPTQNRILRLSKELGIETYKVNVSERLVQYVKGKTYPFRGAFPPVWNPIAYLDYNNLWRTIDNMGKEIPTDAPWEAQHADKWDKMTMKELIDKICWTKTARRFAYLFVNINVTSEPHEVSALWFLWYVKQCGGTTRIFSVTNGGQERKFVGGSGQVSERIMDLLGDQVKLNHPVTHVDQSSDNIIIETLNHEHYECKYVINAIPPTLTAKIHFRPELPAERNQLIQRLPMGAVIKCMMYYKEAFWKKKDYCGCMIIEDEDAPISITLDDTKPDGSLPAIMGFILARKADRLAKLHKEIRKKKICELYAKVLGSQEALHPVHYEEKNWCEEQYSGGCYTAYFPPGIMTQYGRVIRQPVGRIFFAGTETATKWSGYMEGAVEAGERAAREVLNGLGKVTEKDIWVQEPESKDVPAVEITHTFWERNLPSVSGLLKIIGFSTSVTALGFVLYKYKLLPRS
# protocol-details: Inhibition of human recombinant MAO-A assessed as reduction in 4-hydroxyquinoline level using kynuramine as a substrate preincubated for 5 mins followed by substrate addition by spectrofluorimetric analysis
measured-property: pIC50
Keep in mind that pIC50 stands for -log10 of concentration in molar terms.

input: Fill in the blank: the reported pIC50 of `CCN(CC)Cc1ccc(/C=C2\Cc3ccc(OC)cc3C2=O)cc1` is ____.
output: 7.02

###

# target-or-system: Amine oxidase [flavin-containing] B (Homo sapiens, UniProt P27338)
# Sequence (P27338 whole entry): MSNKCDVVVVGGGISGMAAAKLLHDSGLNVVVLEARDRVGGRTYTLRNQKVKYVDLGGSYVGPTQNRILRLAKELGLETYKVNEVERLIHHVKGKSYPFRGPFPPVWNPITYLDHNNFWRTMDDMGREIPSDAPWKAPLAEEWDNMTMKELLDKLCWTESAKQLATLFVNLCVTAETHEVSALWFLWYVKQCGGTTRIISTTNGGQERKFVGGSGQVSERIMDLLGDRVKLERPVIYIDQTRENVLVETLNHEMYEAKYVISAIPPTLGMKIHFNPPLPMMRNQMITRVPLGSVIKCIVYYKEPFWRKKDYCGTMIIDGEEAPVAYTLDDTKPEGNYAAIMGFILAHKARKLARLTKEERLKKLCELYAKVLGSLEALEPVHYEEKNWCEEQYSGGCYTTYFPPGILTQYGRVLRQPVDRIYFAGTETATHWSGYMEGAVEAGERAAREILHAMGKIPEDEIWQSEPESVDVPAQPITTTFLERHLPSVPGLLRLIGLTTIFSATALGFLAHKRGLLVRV
# protocol-details: Inhibition of human recombinant MAO-B assessed as reduction in 4-hydroxyquinoline level using kynuramine as a substrate preincubated for 5 mins followed by substrate addition by spectrofluorimetric analysis
measured-property: IC50 (nM)
A number alone suffices; assume nM.

{"structure-string": "CCN(CC)Cc1ccc(/C=C2\\Cc3ccc(OC)cc3C2=O)cc1", "units-symbol": "nM", "IC50": 91}
{"structure-string": "CCN(CC)Cc1ccc(/C=C2\\Cc3ccccc3C2=O)cc1", "units-symbol": "nM", "IC50": 661}
{"structure-string": "CCN(CC)Cc1ccc(/C=C2\\Cc3cc(OC)c(OC)cc3C2=O)cc1", "units-symbol": "nM", "IC50": 783}

input: Give Amine oxidase [flavin-containing] B (Homo sapiens, UniProt P27338) IC50 for `CCN(CC)Cc1ccc(/C=C2/Cc3cc(OC)ccc3C2=O)cc1`
output: 1940

// provenance: ChEMBL document CHEMBL5104157
